Data provenance is PubChem BioAssay (NCATS).

- target-system: Dual specificity protein kinase CLK4 (Homo sapiens) (UniProt Q9HAZ1)
- Sequence (Q9HAZ1 whole entry, looked up): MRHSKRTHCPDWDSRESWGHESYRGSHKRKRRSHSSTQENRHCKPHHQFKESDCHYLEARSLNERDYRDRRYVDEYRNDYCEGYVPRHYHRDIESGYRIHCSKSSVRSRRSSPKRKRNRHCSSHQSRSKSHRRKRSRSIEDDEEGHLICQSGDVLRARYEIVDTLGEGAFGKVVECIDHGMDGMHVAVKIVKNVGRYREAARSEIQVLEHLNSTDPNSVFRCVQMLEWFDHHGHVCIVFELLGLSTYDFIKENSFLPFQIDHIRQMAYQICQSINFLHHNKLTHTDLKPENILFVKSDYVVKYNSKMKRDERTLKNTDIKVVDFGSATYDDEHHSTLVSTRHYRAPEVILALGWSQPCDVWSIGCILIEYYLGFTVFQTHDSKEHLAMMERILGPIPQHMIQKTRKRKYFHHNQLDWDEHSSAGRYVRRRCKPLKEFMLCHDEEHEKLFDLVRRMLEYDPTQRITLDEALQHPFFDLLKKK
- assay-details: qHTS Assay for Inhibitors of CDC-like Kinase 4 (ADP-FP Assay) (AID 1795); note: nearly all actives have a fitted effect of over 60% in size
- measurement-conditions: Transcreener ADP fluorescence polarization; series mostly up to 50 µM
Results filed as inconclusive are left out. Activity calls are given as the source filed them. Calls come from the whole dose curve; as a rule, active = well fitted inhibition curve with a large enough effect; inconclusive = small, poorly fitted or top-dose-only effect; inactive = flat fitted curve, though single readings scatter.
Choose one outcome from this list and give only that: T (active), F (inactive)

COc1ncc2nc(-c3ccccc3)c(=O)n(CCc3ccccc3)c2n1; F
CN1CCN(c2ncc3nc(-c4ccccc4)c(=O)n(Cc4cccs4)c3n2)CC1; F
Cn1cc(-c2nc3cnc(N4CCNCC4)nc3n(C3CC3)c2=O)c2ccccc21; F
COc1cccc(-c2ccc3ncnc(N4CCNCC4)c3c2)c1; T
Cc1cccc(CNc2ncncc2-c2ccccc2CN(C)C)c1; F
CN(C)c1ccc(-c2cncnc2NCCN2CCOCC2)cc1; F
Cc1nc2cnc(N3CCN(C)CC3)nc2n(CCc2ccccc2)c1=O; F
Cc1cccc(CNc2ncncc2-c2ccccc2C)c1; F
COc1ccccc1CNc1ncncc1-c1ccc2c(c1)OCO2; T
CN(Cc1ccco1)c1cc(-c2ccc3c(c2)OCO3)ncn1; T

Data request: Given COc1ccc(Oc2ncc3nc(-c4cc(F)cc(F)c4)c(=O)n(C4CC4)c3n2)cc1 , state the outcome it received in this test.
Data returned: F

Data request: Please let me know the test result on file for COc1cccc(Cn2c(=O)cnc3cnc(Nc4cccc(OC)c4)nc32)c1 .
Data returned: T

Data request: Entry c1ccc2c(NCCN3CCOCC3)nc(-c3ccc4c(c3)OCO4)nc2c1 : call = ?
Data returned: F

Data request: Hi team, can someone confirm the assay call for Cc1nc2cnc(OCc3ccccc3)nc2n(CCc2ccccc2)c1=O ?
Data returned: F

Data request: Lab log entry: CN(C)c1ncnc2ccc(-c3cccc(NS(C)(=O)=O)c3)cc12 — outcome as called in the assay?
Data returned: T

----------
- target-system: Rap guanine nucleotide exchange factor 3 (Homo sapiens) (UniProt O95398)
- Sequence (O95398 whole entry, looked up): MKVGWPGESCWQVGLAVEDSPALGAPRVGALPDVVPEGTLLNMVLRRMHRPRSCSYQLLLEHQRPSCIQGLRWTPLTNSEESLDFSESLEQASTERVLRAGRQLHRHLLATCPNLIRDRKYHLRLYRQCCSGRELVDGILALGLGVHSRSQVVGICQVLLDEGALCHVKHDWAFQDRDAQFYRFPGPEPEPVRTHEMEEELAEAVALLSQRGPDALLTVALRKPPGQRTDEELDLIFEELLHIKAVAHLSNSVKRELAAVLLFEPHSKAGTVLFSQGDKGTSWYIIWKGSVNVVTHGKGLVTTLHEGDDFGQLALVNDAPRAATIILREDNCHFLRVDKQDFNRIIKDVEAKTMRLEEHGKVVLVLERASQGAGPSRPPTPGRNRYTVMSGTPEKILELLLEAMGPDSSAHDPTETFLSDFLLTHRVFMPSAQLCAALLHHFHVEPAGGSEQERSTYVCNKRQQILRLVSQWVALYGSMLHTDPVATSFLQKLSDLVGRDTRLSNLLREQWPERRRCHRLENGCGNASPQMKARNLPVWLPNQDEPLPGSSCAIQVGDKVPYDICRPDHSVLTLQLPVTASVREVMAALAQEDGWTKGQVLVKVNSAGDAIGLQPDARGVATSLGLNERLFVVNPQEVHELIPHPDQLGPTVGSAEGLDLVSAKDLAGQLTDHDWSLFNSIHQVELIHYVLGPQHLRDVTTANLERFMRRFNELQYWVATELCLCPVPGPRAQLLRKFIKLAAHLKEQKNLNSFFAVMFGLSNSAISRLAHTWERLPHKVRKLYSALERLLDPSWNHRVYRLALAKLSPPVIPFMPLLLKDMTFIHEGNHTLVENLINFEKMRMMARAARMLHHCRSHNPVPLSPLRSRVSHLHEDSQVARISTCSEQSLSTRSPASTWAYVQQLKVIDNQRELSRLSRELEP
- assay-details: Counterscreen qHTS for antagonist of cAMP-regulated guanine nucleotide exchange factor 3 (EPAC1) (AID 1645888);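 note: fluorescence loss as bound BODIPY-GDP is released from Rap1B; % of control where 0% means no effect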
- measurement-conditions: Rap1B-BODIPY-GDP nucleotide exchange, fluorescence; series mostly up to 154 µM
Records with an inconclusive call do not appear. Activity calls are given as the source filed them. Calls come from the whole dose curve; as a rule, active = well fitted inhibition curve with a large enough effect; inconclusive = small, poorly fitted or top-dose-only effect; inactive = no such curve, though single readings can be large or run the other way.
readout-type: activity change, negative = inhibition

Below, each entry is followed by its recorded activity change, negative = inhibition result.
Cc1cccc(OC(=O)Nc2ccc(C(=O)O)c(O)c2)c1; -25.7% [at 30.8 µM] (inactive)
CCCCn1nnnc1C(c1cc2ccccc2o1)N1CCN(c2ncccc2C#N)CC1 (stereo not drawn); -7.87% [at 30.8 µM] (inactive)
Cc1csc(NC(=O)CSCC(=O)O)c1-c1nc2ccccc2s1; inactive
CC(OC(=O)c1ccccc1Oc1ccccc1)C(=O)NC1CC1 (stereo not drawn); inactive
Cc1ccc(C(C)C)c(OCc2ccc(C(=O)N/N=C/c3ccc(O)c(O)c3)cc2)c1; inactive

Data request: // activity change, negative = inhibition lookup, key: COc1cc(C2CC(=O)Oc3cc(C)c(Cl)c(C)c32)cc(OC)c1OC (stereo not drawn)
Data returned: -10.7% [at 30.8 µM] (inactive)

Data request: Consider the compound CCCc1nc2ccc(C(=O)OC)cn2c1Cc1ccccc1 and give its measured activity change, negative = inhibition.
Data returned: inactive

Data request: Could you tell me which activity change, negative = inhibition is on file for O=C(Nc1cccc(F)c1)c1ccc(-c2cccnc2)c2ccoc12 ?
Data returned: inactive

----------
- assay-details: qHTS Counterscreen for compound interference against the NCATS DSHEA and TCM libraries (AID 1919978);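 note: compounds preincubated with 1 µM D-luciferin or buffer before detection reagent; % of control where 0% means no effect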
- measurement-conditions: firefly luciferase detection reagent interference, luminescence
Here, each record is paired with measured max response data.
Please respond with the number in % and leave the unit unwritten.

CCCCCC/C=C\CCCCCCCC(=O)O; 0.217
CC(C)=CCCC(C)(OC1OC(COC2OC(CO)C(O)C2O)C(O)C(O)C1O)C1CCC2(C)C1C(O)CC1C3(C)CCC(OC4OC(CO)C(O)C(O)C4OC4OC(CO)C(O)C(O)C4O)C(C)(C)C3CCC12C (stereo not drawn); 2.08
O=c1c(O[C@@H]2O[C@H](CO)[C@H](O)[C@H](O)[C@H]2O)c(-c2ccc(O)c(O)c2)oc2cc(O)cc(O)c12; 1.88
Cc1ncc(COP(=O)(O)O)c(C)c1O; -1.84
C[C@@H]1O[C@@H](OC[C@H]2OC(Oc3c(-c4ccc(O)c(O)c4)oc4cc(O)cc(O)c4c3=O)[C@H](O)[C@@H](O)[C@@H]2O)[C@H](O)[C@H](O)[C@H]1O (stereo partly drawn); -2.59
CCCCCCCC/C=C\CCCCCCCCCCCCCC(=O)O; -2.19

Data request: Please report the recorded max response for OCC1=C[C@@H](O)[C@@H]2C=CO[C@@H](OC3O[C@H](CO)[C@@H](O)[C@H](O)[C@H]3O)[C@H]12 (stereo partly drawn) .
Data returned: 1.01

Data request: Fill in: max response of C=C1C[C@@]23CC[C@H]4[C@](C)(CCC[C@]4(C)C(=O)O[C@@H]4O[C@H](CO)[C@@H](O)[C@H](O)[C@H]4O)[C@@H]2CC[C@]1(O[C@H]1O[C@@H](CO)[C@H](O)[C@@H](O)[C@@H]1O)C3 is ___
Data returned: 3.88

Data request: Look up max response: CC1(C)C2CCC1(C)C(O)C2 (stereo not drawn)
Data returned: 1.58

Data request: What measured max response goes with CCCCCCC/C=C/C(=O)CCc1ccc(O)c(OC)c1 ?
Data returned: 6.04

Data request: Request the reported max response associated with CC1=CC[C@H](C(C)C)C=C1
Data returned: 0.517

Data request: What measured max response goes with OCCc1ccc(O)cc1 ?
Data returned: -3.57

Data request: Would you mind telling me what max response value was observed for CCCCCCCC/C=C\CCCCCCCCCCCC(=O)O ?
Data returned: 1.35

----------
- target-system: Phenylethanolamine N-methyltransferase (Homo sapiens) (UniProt P11086)
- Sequence (P11086 whole entry, looked up): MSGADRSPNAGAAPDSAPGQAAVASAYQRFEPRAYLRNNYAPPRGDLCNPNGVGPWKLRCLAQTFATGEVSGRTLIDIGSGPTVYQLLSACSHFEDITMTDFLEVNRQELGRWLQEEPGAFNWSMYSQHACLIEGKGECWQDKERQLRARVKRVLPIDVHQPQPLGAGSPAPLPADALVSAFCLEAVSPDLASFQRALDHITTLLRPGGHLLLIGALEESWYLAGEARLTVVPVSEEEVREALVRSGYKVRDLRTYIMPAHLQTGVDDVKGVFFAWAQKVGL
- assay-details: Confirmatory Screen for Target Class Profiling of Small Molecule Inhibitors of Methyltransferases (AID 1745852)
- measurement-conditions: MTase-Glo luminescence, SAH detection, recombinant enzyme; measured here: PNMT max response; stronger effect = lower value
readout-type: activity (%)
Form entry: value (%) — number only.

Illustrative cases are given below, each with its answer.
Cc1cnc(CCNC(=O)c2n[nH]c(=O)c3ccccc23)n1C1CCCCC1; -2.34
COc1ccc(CCNC(=O)c2ccc3c(=O)[nH]c4c(C(=O)NC5CCCC5)sc(=S)n4c3c2)cc1OC; -23
Cc1ccc(Cn2c(=O)c3ccccc3n3c(CCC(=O)N4CCC(N5CCCCC5)CC4)nnc23)cc1; -2.33
CN(Cc1ccccc1)C1(C(=O)NC2CCC(O)CC2)Cc2ccccc2C1 (stereo not drawn); 6.38

Data request: // returns reported activity for input COc1ccc(CNc2cc3c(cn2)CN(Cc2ccccc2)CCN3)cc1OC
Data returned: 1.92

Data request: Would you mind telling me what activity value was observed for CN1CCC(N2CC[C@H](c3nc4ccc(C(F)(F)F)cc4[nH]3)C2)CC1 ?
Data returned: 7.95

Data request: Given COc1cccc(CNC(=O)c2sc(=S)n3c2[nH]c(=O)c2cc4c(cc23)OCO4)c1 , state its recorded activity.
Data returned: -28

Data request: Look up activity: COc1ccc(CCNC(=O)c2ccc3c(=O)[nH]c4c(C(=O)NCC5CCCO5)sc(=S)n4c3c2)cc1OC (stereo not drawn)
Data returned: -16.5

Data request: activity lookup needed for COc1cccc(NC(=O)Cn2c(=O)oc3cc(S(=O)(=O)N4CCCC4)ccc32)c1 , thanks.
Data returned: -58.7

Data request: # get_value(readout='activity', item= c1ccc(-c2[nH]nc3ncc(-c4cn[nH]c4)nc23)cc1 )
Data returned: -83.4

Data request: So what does the record say about activity for CCNc1nccc(N2CCC(CC(=O)NCC(C)C)CC2)n1 ?
Data returned: -1.27

Data request: Entry Cn1c(=O)n(C)c2cc(S(=O)(=O)Nc3cc4c(cc3NCc3ccccc3)n(C)c(=O)n4C)ccc21 : reported activity = ?
Data returned: -25.2

Data request: Using the record for Cc1cnc(C2CC2)n1C1CCN(S(=O)(=O)c2ccc3c(c2)OCCO3)CC1 , report its activity.
Data returned: -0.889

Data request: What does the data say about its activity? Entry: c1ccc(CN2CCNc3cnc(Nc4ccc(N5CCOCC5)cc4)cc3C2)cc1
Data returned: -10.3

Data request: What does the record list as activity for O=C(Nc1ccc2c(N3CCCC3)ncnc2c1)c1cc(F)ccc1Cl ?
Data returned: -17.8

Data request: Fill blank: measured activity of the molecule C[C@H]1CN(C(=O)c2nn(C)c3ccccc23)C[C@@H]1c1nc(-c2cccnc2)no1 is ____.
Data returned: 7.38

----------
- target-system: Rap guanine nucleotide exchange factor 3 (Homo sapiens)
- assay-details: Counterscreen qHTS for antagonist of cAMP-regulated guanine nucleotide exchange factor 3 (EPAC1) (AID 1645888);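 note: fluorescence loss as bound BODIPY-GDP is released from Rap1B; % of control where 0% means no effect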
- measurement-conditions: Rap1B-BODIPY-GDP nucleotide exchange, fluorescence; series mostly up to 154 µM
- Text: Assay Provider (PI): Xiaodong Cheng Ph.D. The University of Texas Medical Branch, […], TX MLPCN Grant: NS066510 In multi-cellular eukaryotic organisms, the effects of cAMP are transduced by two ubiquitously-expressed intracellular cAMP receptors, the classic protein kinase A/cAMP-dependent protein kinase (PKA/cAPK) and the more recently discovered exchange protein directly activated by cAMP/cAMP-regulated guanine nucleotide exchange factor (EPAC/cAMP-GEF). […]
Results filed as inconclusive are left out. Calls of active or inactive are those of the source. The call rests on the fitted dose curve; in most records, active means well fitted inhibition curve with a large enough effect; inconclusive means small, poorly fitted or top-dose-only effect; inactive means no such curve, though single readings can be large or run the other way.
readout-type: activity change, negative = inhibition

Below: 4 compounds and their reported activity change, negative = inhibition.
COc1ccc(NC(=O)CSc2nc3sc4c(c3c(=O)n2-c2ccc(OC)cc2)CCN(C)C4)cc1; -8.97% [at 30.8 µM] (inactive)
O=C(O)CCSc1nnc(COc2cccc3ccccc23)n1-c1cccc(Cl)c1; inactive
O=C(O)C/C(=C\c1cc(Cl)c2c(c1)OCO2)c1nc2ccccc2s1; -1% [at 30.8 µM] (inactive)
CCOC(=O)Cc1nn(Cc2ccc(Cl)cc2)c(=O)c2ccccc12; inactive

Okay, next one:
Data request: Which measured activity change, negative = inhibition belongs to CC(/C=C1\SC(=S)N(c2ccc(C(=O)O)cc2)C1=O)=C\c1ccccc1 , tested on Rap guanine nucleotide exchange factor 3 (Homo sapiens)?
Data returned: 1.04% [at 30.8 µM] (inactive)
